These data points were gathered from patent US11566007B2.

EXPERIMENTAL SYSTEM: NRAS Q61K (Homo sapiens (Human), UniProt P01111+P62937, Q61K)
Sequence (P01111 whole entry Q61K): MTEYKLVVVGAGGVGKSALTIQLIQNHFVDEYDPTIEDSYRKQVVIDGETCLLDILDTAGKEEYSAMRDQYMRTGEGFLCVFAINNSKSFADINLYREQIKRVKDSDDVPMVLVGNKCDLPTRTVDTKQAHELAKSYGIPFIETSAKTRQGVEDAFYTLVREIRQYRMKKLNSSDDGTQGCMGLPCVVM
Sequence (P62937 whole entry): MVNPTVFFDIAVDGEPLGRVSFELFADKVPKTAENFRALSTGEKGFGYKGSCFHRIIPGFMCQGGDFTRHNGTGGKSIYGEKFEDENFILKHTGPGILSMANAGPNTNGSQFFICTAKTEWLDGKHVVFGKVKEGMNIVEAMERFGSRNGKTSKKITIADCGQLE
ASSAY SUMMARY: Ras-Raf (BRAF RBD) disruption / FRET / MOA assay, NRAS Q61K
Format: biochemical
MEASUREMENT PARAMETERS: NRAS Q61K; Ras-Raf disruption/FRET/MOA assay; read-out: IC50* NRAS Q61K FRET data
EXPERIMENTAL READOUT: IC50

Examples with answers:
MOLECULE | IC50
CO[C@@H](C)c1ncc(N2CCN(C)CC2)cc1-c1c2c3cc(ccc3n1CC(F)(F)F)-c1cccc(c1)C[C@H](NC(=O)[C@H](C(C)C)N(C)C(=O)C1(F)CCN(C(=O)C#CC(C)(C)N(C)C)CC1)C(=O)N1CCC[C@H](N1)C(=O)OCC(C)(C)C2 (atropisomer, axis not shown) | 10 to 100 nM
C=CC(=O)N1CCN(C(=O)N(C)[C@H](C(=O)N[C@H]2Cc3nc(cs3)-c3ccc4c(c3)c(c(-c3cccnc3[C@H](C)OC)n4CC)CC(C)(C)COC(=O)[C@@H]3CCCN(N3)C2=O)C(C)C)[C@@H]2CC[C@@H]21 (atropisomer, axis not shown) | 10 to 100 nM
C=CC(=O)N1CCOC2(CCN(C(=O)N(C)[C@H](C(=O)N[C@H]3Cc4nc(cs4)-c4ccc5c(c4)c(c(-c4cccnc4[C@H](C)OC)n5CC)CC(C)(C)COC(=O)[C@@H]4CCCN(N4)C3=O)C(C)C)CC2)C1 (atropisomer, axis not shown) | 100 to 1000 nM

molecule C=CC(=O)N(C)[C@H]1CN(C(=O)N(C)[C@H](C(=O)N[C@H]2Cc3nc(cs3)-c3ccc4c(c3)c(c(-c3cccnc3[C@H](C)OC)n4CC)CC(C)(C)COC(=O)[C@@H]3CCCN(N3)C2=O)C(C)C)C[C@@H]1F (atropisomer, axis not shown) , IC50 observed: 100 to 1000 nM
